// Ki lookup, one value per entry
# study_target: UniProt Q8WSF8
# Sequence (Q8WSF8 whole entry): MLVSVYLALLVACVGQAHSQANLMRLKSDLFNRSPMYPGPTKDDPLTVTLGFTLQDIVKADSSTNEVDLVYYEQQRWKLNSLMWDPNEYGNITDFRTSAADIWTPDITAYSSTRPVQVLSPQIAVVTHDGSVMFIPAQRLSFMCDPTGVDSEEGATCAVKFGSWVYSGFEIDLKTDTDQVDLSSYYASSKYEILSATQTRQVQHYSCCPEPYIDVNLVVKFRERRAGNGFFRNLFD
# assay_info: Displacement of [3H]epibatidine from Aplysia californica AChBP
Just the number please, in nM, no unit attached.

Sample answers from the record:
compound	study_target	Ki (nM)
CNC(=O)OCC[C@H]1C[C@@H]1c1cncc(OC[C@@H]2CCN2)c1	UniProt Q8WSF8	1930
OCC[C@H]1C[C@@H]1c1cncc(OC[C@@H]2CCN2)c1	UniProt Q8WSF8	979

Then there is this compound:
Inquiry: Using the record for CN1CCC[C@H]1c1cccnc1 [NICOTINE] , state its measured Ki.
Reply text: 598
